Data provenance: patent US20100022491A1

target: recombinant human α1D receptor (Homo sapiens, UniProt P25100); construct: expressed in transfected cells; host or cells: HEK293; test: Adrenergic α1D selectivity binding assay ([3H]-prazosin); settings: inhibition of [3H]-prazosin (0.3 nM) binding, HEK293 membranes; read-out: α1 bind pIC50 (converted)
Sequence (P25100 whole entry): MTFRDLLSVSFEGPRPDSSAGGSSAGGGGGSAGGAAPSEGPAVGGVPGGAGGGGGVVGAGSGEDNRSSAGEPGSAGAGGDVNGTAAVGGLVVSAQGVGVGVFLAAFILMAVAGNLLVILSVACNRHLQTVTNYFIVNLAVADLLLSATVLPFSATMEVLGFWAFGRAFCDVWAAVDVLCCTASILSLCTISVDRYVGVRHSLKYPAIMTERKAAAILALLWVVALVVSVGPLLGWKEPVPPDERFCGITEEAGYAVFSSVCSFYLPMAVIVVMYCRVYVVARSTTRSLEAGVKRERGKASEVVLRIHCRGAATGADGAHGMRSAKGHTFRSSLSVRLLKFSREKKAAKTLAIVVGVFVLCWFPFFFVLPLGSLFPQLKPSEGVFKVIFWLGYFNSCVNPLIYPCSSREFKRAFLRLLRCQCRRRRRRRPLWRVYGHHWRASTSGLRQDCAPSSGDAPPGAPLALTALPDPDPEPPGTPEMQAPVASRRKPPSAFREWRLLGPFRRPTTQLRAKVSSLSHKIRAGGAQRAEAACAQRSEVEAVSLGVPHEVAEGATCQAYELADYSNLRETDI
Where a name gives a salt, the structure may show the parent alone.
Value Type: IC50 (nM)
The reply should be a number in nM, with the unit left off.

The following compounds have reported results that may help.
[Q] Any idea what its IC50 is? The compound is O=C(CCNCCc1cccs1)N(CCNCCc1ccc(O)c2[nH]c(=O)sc12)C1CCCCC1 [Example 35, bis-trifluoroacetic acid salt]
[A] 158

[Q] Any idea what its IC50 is? The compound is O=C(CCNCCc1cccc(C(F)(F)F)c1)N(CCNCCc1ccc(O)c2[nH]c(=O)sc12)C1CCCCCC1 [Example 82, bis-trifluoroacetic acid salt]
[A] 251

Okay, now this compound:
[Q] Any idea what its IC50 is? The compound is CC(C)(C)CN(CCNCCc1ccc(O)c2[nH]c(=O)sc12)C(=O)CCNCCc1cccc(Cl)c1 [Example 7, bis-trifluoroacetic acid salt]
[A] 251
